# system-name: SmSOD (Streptococcus mutans serotype c, UniProt P09738)
# Construct: His-tail; made in house; host or cells: Escherichia coli BL21(DE3), vector vSmSOD (pET-22b(+)-derived)
# Sequence (P09738 2-203): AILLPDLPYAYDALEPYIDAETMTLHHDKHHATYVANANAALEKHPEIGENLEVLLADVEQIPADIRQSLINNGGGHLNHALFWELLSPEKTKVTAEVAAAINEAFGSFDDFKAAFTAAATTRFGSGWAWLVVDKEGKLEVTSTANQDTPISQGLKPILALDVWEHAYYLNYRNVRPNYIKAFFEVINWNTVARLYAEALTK
# experimental-protocol: SOD activity assay (inhibition of cytochrome c reduction, xanthine/xanthine oxidase method) with SmSOD
# Format: biochemical
# settings: Mn-enriched SmSOD, basal Mn content 2.7-fold improved after metal exchange; read-out: IC50 in the Mn-enriched enzyme
measured-metric: IC50 (µM)
Report as a plain number; the unit µM is understood.

# molecule CSCCC(NC(=O)COc1ccc2c3c(c(=O)oc2c1)CCCC3)C(=O)NCCC(=O)O (stereo not shown) [ALS-31] ; its IC50 = 262

###

# system-name: SmSOD (Streptococcus mutans serotype c)
# Construct: His-tail; made in house; host or cells: Escherichia coli BL21(DE3), vector vSmSOD (pET-22b(+)-derived)
# experimental-protocol: SOD activity assay (inhibition of cytochrome c reduction, xanthine/xanthine oxidase method) with SmSOD
# Assay type: biochemical
# settings: SmSOD activity, ALS-31 derivatives, Table 2; read-out: IC50
measured-metric: IC50 (µM)
Report as a plain number; the unit µM is understood.

The cases that follow already have their IC50 on record.
# molecule CCCC(NC(=O)COc1ccc2c3c(c(=O)oc2c1)CCCC3)C(=O)NCCCC(=O)O (stereo not shown) ; its IC50 = 64

# molecule CSCCC(NC(=O)COc1ccc2c3c(c(=O)oc2c1)CCCC3)C(=O)O (stereo not shown) ; its IC50 = 139

# molecule O=C(O)CCCNC(=O)COc1ccc2c3c(c(=O)oc2c1)CCCC3 ; its IC50 = 127

***
# molecule CSCCC(NC(=O)CCNC(=O)COc1cc2oc(=O)c3c(c2cc1C)CCCC3)C(=O)O (stereo not shown) ; its IC50 = 292

###

# system-name: SmSOD (Streptococcus mutans serotype c, UniProt P09738)
# Construct: His-tail; made in house; host or cells: Escherichia coli BL21(DE3), vector vSmSOD (pET-22b(+)-derived)
# experimental-protocol: SOD activity assay (inhibition of cytochrome c reduction, xanthine/xanthine oxidase method) with SmSOD
# Type: biochemical
# settings: Mn-basal SmSOD; read-out: IC50 (concentration leading to 50% inhibition of SmSOD activity)
measured-metric: pIC50
On this scale, pIC50 is minus log10 of a concentration expressed in M (mol/L).

# molecule CSCCC(NC(=O)COc1ccc2c3c(c(=O)oc2c1)CCCC3)C(=O)NCCC(=O)O (stereo not shown) ; its pIC50 = 3.80

###

# system-name: UniProtKB P0AGD3
# Sequence (P0AGD3 2-193): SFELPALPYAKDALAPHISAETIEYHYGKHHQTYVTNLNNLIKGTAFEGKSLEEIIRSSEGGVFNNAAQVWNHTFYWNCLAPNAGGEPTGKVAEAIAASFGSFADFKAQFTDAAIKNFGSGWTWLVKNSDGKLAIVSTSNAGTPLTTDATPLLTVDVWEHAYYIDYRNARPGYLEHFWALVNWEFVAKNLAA
measured-metric: IC50 (µM)
Report as a plain number; the unit µM is understood.

# compound CSCCC(NC(=O)COc1ccc2c3c(c(=O)oc2c1)CCCC3)C(=O)NCCC(=O)O (stereo not shown) [ALS-31] ; its IC50 = 123

###

Each item that follows carries a reported remaining activity at 100 µM.
# system-name: SmSOD (Streptococcus mutans serotype c, UniProt P09738)
# Construct: His-tail; made in house; host or cells: Escherichia coli BL21(DE3), vector vSmSOD (pET-22b(+)-derived)
# experimental-protocol: SOD activity assay (inhibition of cytochrome c reduction, xanthine/xanthine oxidase method) with SmSOD
# Format: biochemical
# settings: 100 µM compound; ALS-31 derivatives, Table 2; read-out: Residual SOD Activity (%) in the Presence of [Compound]
Report as a plain number; the unit % is understood.

The cases that follow already have their remaining activity at 100 µM on record.
# compound O=C(O)CCNC(=O)COc1ccc2c3c(c(=O)oc2c1)CCCC3 ; its remaining activity at 100 µM = 125

# compound CSCCC(NC(=O)COc1ccc2c3c(c(=O)oc2c1)CCC3)C(=O)O (centres unmarked) ; its remaining activity at 100 µM = 97.2

# compound CSCCC(NC(=O)COc1cc(C)cc2oc(=O)c3c(c12)CCC3)C(=O)NCCC(=O)O (centres unmarked) ; its remaining activity at 100 µM = 96.8

# compound O=C(O)CNC(=O)CNC(=O)COc1ccc2c3c(c(=O)oc2c1)CCCC3 ; its remaining activity at 100 µM = 125

# compound CCCC(NC(=O)COc1ccc2c3c(c(=O)oc2c1)CCCC3)C(=O)O (centres unmarked) ; its remaining activity at 100 µM = 125

# compound CSCCC(NC(=O)CCNC(=O)COc1ccc2c3c(c(=O)oc2c1)CCC3)C(=O)O (centres unmarked) ; its remaining activity at 100 µM = 104

# compound CCCC(NC(=O)COc1ccc2c3c(c(=O)oc2c1)CCCC3)C(=O)NCCCC(=O)O (centres unmarked) ; its remaining activity at 100 µM = 50.3

--- query ---
# compound O=C(O)CCCNC(=O)COc1ccc2c3c(c(=O)oc2c1)CCCC3 ; its remaining activity at 100 µM = 78
